Taken from the supplement of paper PMC9112550.

System: Escherichia coli TOP10;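 further: peptides expressed intracellularly from a pBAD plasmid library in pooled LB shake-flask culture, induced with 0.3% L-arabinose, DNA abundance read by NGS, three biological replicates, DESeq2 with apeglm shrinkage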
Test: shrunken log2 fold change of peptide-encoding DNA abundance (4.5 h post-induction vs induction); higher = less antimicrobial activity (less host growth inhibition)
Conditions: time post-induction: 4.5 h; library: site-saturation at positions 5, 18, 19, 20

{"columns": ["sequence.entry", "shrunken log2 fold change"],
 "data": [
  ["RRIRNRPPRLPRPRPRPFLTPRP", -0.505],
  ["RRIRERPPRLPRPRPRPRGQPRP", 0.837],
  ["RRIRSRPPRLPRPRPRPTHFPRP", -0.0655],
  ["RRIRVRPPRLPRPRPRPHHQPRP", -0.427],
  ["RRIRHRPPRLPRPRPRPFRSPRP", -0.000777],
  ["RRIRPRPPRLPRPRPRPMNCPRP", -0.138],
  ["RRIRNRPPRLPRPRPRPCLCPRP", -0.275],
  ["RRIRNRPPRLPRPRPRPWKEPRP", -0.59],
  ["RRIRPRPPRLPRPRPRPDTTPRP", -0.156],
  ["RRIRLRPPRLPRPRPRPDACPRP", 0.252],
  ["RRIRYRPPRLPRPRPRPLMNPRP", -0.217],
  ["RRIRQRPPRLPRPRPRPHHEPRP", 0.0974],
  ["RRIRPRPPRLPRPRPRPWIIPRP", -0.919],
  ["RRIRARPPRLPRPRPRPKLAPRP", 0.555],
  ["RRIRMRPPRLPRPRPRPCVFPRP", -0.065]
]}
